Recorded values, source paper doi:10.1101/2025.04.16.649181.

Give measured IC50 for each item. Keep answers brief.
# System under test: PAC1 (endogenous, mainly PAC1null, SH-SY5Y) (Homo sapiens, UniProt P41586)
# Construct: Neuroblastoma SH-SY5Y cells endogenously xpressing hPAC1 and engineered to express CBS; endogenous in cells
# Sequence (P41586 21-468): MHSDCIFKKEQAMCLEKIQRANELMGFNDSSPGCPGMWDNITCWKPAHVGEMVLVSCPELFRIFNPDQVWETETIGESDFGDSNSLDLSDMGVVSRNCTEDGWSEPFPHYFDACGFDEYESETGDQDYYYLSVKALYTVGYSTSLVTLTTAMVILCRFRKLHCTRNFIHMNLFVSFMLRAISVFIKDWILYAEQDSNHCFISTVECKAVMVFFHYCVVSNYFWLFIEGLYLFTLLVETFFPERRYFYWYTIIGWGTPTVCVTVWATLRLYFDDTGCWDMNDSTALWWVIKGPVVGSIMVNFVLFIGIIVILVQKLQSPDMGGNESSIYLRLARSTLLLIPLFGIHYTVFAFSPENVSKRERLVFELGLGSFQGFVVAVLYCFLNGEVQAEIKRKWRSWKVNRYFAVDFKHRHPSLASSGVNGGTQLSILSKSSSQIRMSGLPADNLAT
# Assay text: CBS assay, antagonism of P38-induced cAMP in SY5Y_CBS cells
# Type: cell-based
# Experimental parameters: 0.2 nM P38 (EC80), SY5Y_CBS, three independent experiments, Figure 11B; read-out: IC50 of P6-38 C-terminal mutants in CBS assay
No end group written: not given here.

Consider the substance FTDSYSRYRKQMAVKKYLAAVL-NH2 [P6-27] tested on PAC1 (endogenous, mainly PAC1null, SH-SY5Y) (Homo sapiens, UniProt P41586); state its IC50.
> 1 µM

Let us examine a further case.
Give IC50; test system PAC1 (endogenous, mainly PAC1null, SH-SY5Y) (Homo sapiens, UniProt P41586); substance FTDSYSRYRKQMAVKKYLAAVLG-NH2 [P6-28]
> 1 µM
